B1: HDV Ribozyme (parent)
chain: GGCCGGCAUGGUCCCAGCCUCCUCGCUGGCGCCGGCUGGGCAACAUUCCGAGGGGACCGUCCCCUCGGUAAUGGCGAAUGGGACCCA

variants of: B1; assay: self-cleavage, relative activity (ratio to wild type); higher = more cleavage; co-transcriptional
OUTCOME_MEASURE: self-cleavage
Form rule: numeric answer, no unit written next to it.

Worked cases, answers included:
{"VARIANT_SPEC": "C4U C22A", "self-cleavage": 0.188}
{"VARIANT_SPEC": "C24A U69C", "self-cleavage": 0.712}
{"VARIANT_SPEC": "C15G C66U", "self-cleavage": 0.573}
{"VARIANT_SPEC": "C32A U65G", "self-cleavage": 0.122}
{"VARIANT_SPEC": "A51U G54A", "self-cleavage": 0.973}

Documented self-cleavage of C49A G82U : 0.437

Documented self-cleavage of C48U G68C : 0.959

Documented self-cleavage of C49A A83G : 0.546
